Origin of measurements: PubChem BioAssay AID2685

# procedure.text: qHTS Assay for Lipid Storage Modulators in Drosophila S3 Cells;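 note: cells counted by Cell Tracker Red CMTPX staining in the red channel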
# conditions: BODIPY lipid droplet fluorescence, 18-24 h, cells fed with added oleic acid; measured here: cell count max response
The campaign covered roughly 320,000 compounds. About 2,100 (0.66%) were called active. About 53% were inconclusive and are not listed. This is one part of a sample in which actives are shown more often than they occur.
reported.metric: cell number change (%)

| molecule | scale.unit | meas.value |
| --- | --- | --- |
| COc1cccc(C(c2c(NC(=O)c3ccco3)sc(C)c2C)N2CCOCC2)c1 (configuration not stated) | % | -13.8 |
| COc1cc(-n2nc(C)c3c2OC(N)=C(C#N)C3c2ccccc2)c(Cl)c(Br)c1O (configuration not stated) | % | -5.47 |
| Cc1sc(NC(=O)c2ccco2)c(C(c2cccnc2)N2CCCC2)c1C (configuration not stated) | % | -20.2 |
| O=C(O)c1ccc(NC2=C(N3CCOCC3)C(=O)c3ccccc3C2=O)cc1 | % | -2.96 |
| COc1ccc(OC)c(S(=O)(=O)N2CCC(C(=O)N3CCOCC3)CC2)c1 | % | 23.2 |
| Cc1sc(NC(=O)c2ccco2)c(C(c2cccnc2)N2CCN(CCO)CC2)c1C (configuration not stated) | % | -13.8 |
| CCN(CC)S(=O)(=O)c1ccc(NN=C2CCN(C(C)C)CC2)c([N+](=O)[O-])c1 | % | 1.2 |
| COc1cccc(/C=C/C(=O)OCC(=O)Nc2cc(C(F)(F)F)ccc2Cl)c1 | % | 1.22 |
| COc1ccc(OC)c(S(=O)(=O)N2CCC(C(=O)N3CCN(Cc4ccccc4)CC3)CC2)c1 | % | -36.9 |
| CS(=O)(=O)N(C(=O)NC(=O)NC12CC3CC(CC(C3)C1)C2)C1CCCCC1 | % | 9.2 |
| Cc1cc(/C(N)=N/OC(=O)Nc2ccccc2)no1 | % | 22.2 |
| O=C1C=C(N2CCOCC2)c2ccccc2C1=O | % | -6.93 |
| O=C1c2cc(Cl)ccc2OC2(CCNCC2)C12CC(c1ccccc1)=NO2 (configuration not stated) | % | 8.66 |
| CC(=O)Nc1ccc(S(=O)(=O)N2CCN(CC3CC4C=CC3C4)CC2)cc1 (configuration not stated) | % | 5.59 |
| COc1cccc(Oc2cn[nH]c2-c2ccc(OCC(=O)NN)cc2O)c1 | % | 0.872 |
| COc1ccc(CN2CCCC(C(=O)N3CCCCC3)C2)c(OC)c1 (configuration not stated) | % | -9.62 |
| O=P(O)(OCc1ccccc1)OCc1ccccc1 | % | 4.18 |
| Cn1ncc(Br)c1C(=O)Nc1ccc(F)cc1F | % | 0.403 |
| Cc1ccccc1-n1c(Cn2c(=O)sc3ccccc32)nnc1SCC(=O)N1CCOCC1 | % | -4.41 |
| COc1ccc(C(c2c(NC(=O)c3ccco3)sc(C)c2C)N2CCOCC2)cc1OC (configuration not stated) | % | -1.23 |
| O=C(Nc1ccc(C2CC2(Cl)Cl)cc1)c1cccc([N+](=O)[O-])c1 (configuration not stated) | % | -18.3 |
| O=C(NC1CCCN(CCc2ccccc2)C1)C1CCCC1 (configuration not stated) | % | 8.14 |
